System: Hepatitis C virus
assayOverview: Antiviral activity against HCV after 72 hrs by stable luciferase reporter gene assay
Format: functional, organism-based, Hepacivirus hominis

[
  {
    "compound": "C/C=C/C[C@@H](C)[C@@H](O)[C@H]1C(=O)N[C@@H](CC)C(=O)N(C)CC(=O)N(C)[C@@H](CC(C)C)C(=O)N[C@@H](C(C)C)C(=O)N(C)[C@@H](CC(C)C)C(=O)N[C@@H](C)C(=O)N[C@H](CN(CC)CC)C(=O)N(C)[C@@H](CC(C)C)C(=O)N(C)[C@@H](CC(C)C)C(=O)N(C)[C@@H](C(C)C)C(=O)N1C",
    "EC90 / nM": 950
  },
  {
    "compound": "C/C=C/C[C@@H](C)[C@@H](O)[C@H]1C(=O)N[C@@H](CC)C(=O)N(C)CC(=O)N(C)[C@@H](CC(C)C)C(=O)N[C@@H](C(C)C)C(=O)N(C)[C@@H](CC(C)C)C(=O)N[C@@H](C)C(=O)N[C@H](C)C(=O)N(C)[C@@H](CC(C)C)C(=O)N(C)[C@@H](CC(C)C)C(=O)N(C)[C@@H](C(C)C)C(=O)N1C [CYCLOSPORINE]",
    "EC90 / nM": 910
  },
  {
    "compound": "C/C=C/C[C@@H](C)[C@@H](O)[C@H]1C(=O)N[C@@H](CC)C(=O)N(C)CC(=O)N(C)[C@@H](CC(C)C)C(=O)N[C@@H](C(C)C)C(=O)N(C)[C@@H](CC(C)C)C(=O)N[C@@H](C)C(=O)N[C@H](CCN)C(=O)N(C)[C@@H](CC(C)C)C(=O)N(C)[C@@H](CC(C)C)C(=O)N(C)[C@@H](C(C)C)C(=O)N1C",
    "EC90 / nM": 2350
  },
  {
    "compound": "C/C=C/C[C@@H](C)[C@@H](O)[C@H]1C(=O)N[C@@H](CC)C(=O)N(C)CC(=O)N(C)[C@@H](CC(C)C)C(=O)N[C@@H](C(C)C)C(=O)N(C)[C@@H](CC(C)C)C(=O)N[C@@H](C)C(=O)N[C@H](CCNC(=O)C(C)(C)C)C(=O)N(C)[C@@H](CC(C)C)C(=O)N(C)[C@@H](CC(C)C)C(=O)N(C)[C@@H](C(C)C)C(=O)N1C",
    "EC90 / nM": 360
  },
  {
    "compound": "C/C=C/C[C@@H](C)[C@@H](O)[C@H]1C(=O)N[C@@H](CC)C(=O)N(C)CC(=O)N(C)[C@@H](CC(C)C)C(=O)N[C@@H](C(C)C)C(=O)N(C)[C@@H](CC(C)C)C(=O)N[C@@H](C)C(=O)N[C@H](CCCCN)C(=O)N(C)[C@@H](CC(C)C)C(=O)N(C)[C@@H](CC(C)C)C(=O)N(C)[C@@H](C(C)C)C(=O)N1C",
    "EC90 / nM": 2850
  },
  {
    "compound": "C/C=C/C[C@@H](C)[C@@H](O)[C@H]1C(=O)N[C@@H](CC)C(=O)N(C)CC(=O)N(C)[C@@H](CC(C)C)C(=O)N[C@@H](C(C)C)C(=O)N(C)[C@@H](CC(C)C)C(=O)N[C@@H](C)C(=O)N[C@H](CCCNC(=O)C(C)(C)C)C(=O)N(C)[C@@H](CC(C)C)C(=O)N(C)[C@@H](CC(C)C)C(=O)N(C)[C@@H](C(C)C)C(=O)N1C",
    "EC90 / nM": 310
  }
]
